Assay target: SLC26A11^ΔC (SLC26A11(ΔC)) (Homo sapiens, UniProt Q86WA9)
Construct: C-terminal disordered 23 residues deleted (MD model residues 26-583); N-glycosylated at Asn-294; homodimer; DDM micelles (DSF), SoyPC/BMP proteoliposomes (transport), MSP1-E3D1 nanodiscs (cryo-EM)
Sequence (Q86WA9 1-583): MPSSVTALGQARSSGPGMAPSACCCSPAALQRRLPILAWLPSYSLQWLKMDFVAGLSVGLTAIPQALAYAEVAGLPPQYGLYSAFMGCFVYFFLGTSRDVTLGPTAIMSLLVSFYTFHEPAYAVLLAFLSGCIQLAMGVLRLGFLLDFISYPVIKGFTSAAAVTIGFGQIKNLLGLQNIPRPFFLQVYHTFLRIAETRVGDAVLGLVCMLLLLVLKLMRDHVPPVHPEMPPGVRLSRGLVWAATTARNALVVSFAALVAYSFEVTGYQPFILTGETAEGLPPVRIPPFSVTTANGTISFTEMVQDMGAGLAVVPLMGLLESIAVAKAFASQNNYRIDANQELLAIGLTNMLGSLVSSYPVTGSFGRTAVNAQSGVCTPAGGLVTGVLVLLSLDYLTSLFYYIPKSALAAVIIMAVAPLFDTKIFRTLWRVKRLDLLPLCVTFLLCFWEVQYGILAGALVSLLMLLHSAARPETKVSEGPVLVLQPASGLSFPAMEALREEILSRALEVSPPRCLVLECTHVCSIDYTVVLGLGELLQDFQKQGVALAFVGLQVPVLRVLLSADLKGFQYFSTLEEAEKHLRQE
Test description: differential scanning fluorimetry (nanoDSF), anion titration
Assay conditions: read-out: apparent KD
Recorded metric: pKd
Numbers only, as −log10 of the molar value.

Compound | pKd
O=S(=O)(O)O [sulfate] | 4.24

Answer with reported pKd of Cl [chloride]
2.22
